# System: BT-474
# protocol.notes: Antiproliferative activity against human BT474 cells overexpressing ERBb2 after 3 days by methylene blue staining
# Type: functional, cell-based
# experimental.conditions: BT-474, 72 h
pEC50: −log10 of the molar value.
pEC50 overview

| molecule | pEC50 |
| --- | --- |
| O=C(O[C@H]1CN[C@H](C#Cc2cc3ncnc(Nc4ccc(OCc5cccc(F)c5)c(Cl)c4)c3s2)C1)N1CCOCC1 [GW869810X] | 7.52 |
| CN(C)C(=O)O[C@@H]1CN[C@@H](C#Cc2cc3ncnc(Nc4ccc(OCc5cccc(F)c5)c(Cl)c4)c3s2)C1 [GSK-238063A] | 7.52 |
| CCNC(=O)O[C@H]1CN[C@H](C#Cc2cc3ncnc(Nc4ccc(OCc5cccc(F)c5)c(Cl)c4)c3s2)C1 [GSK-192082A] | 7.52 |
| CN(C)C(=O)O[C@H]1CN[C@H](C#Cc2cc3ncnc(Nc4ccc(OCc5cccc(F)c5)c(Cl)c4)c3s2)C1 [GSK-182497A] | 7.52 |
| CCN(C)C(=O)O[C@H]1CN[C@H](C#Cc2cc3ncnc(Nc4ccc(OCc5cccc(F)c5)c(Cl)c4)c3s2)C1 | 7.05 |
| CNC(=O)O[C@H]1CN[C@H](C#Cc2cc3ncnc(Nc4ccc(OCc5cccc(F)c5)c(Cl)c4)c3s2)C1 | 7.52 |
| C=CC(=O)Nc1cc2c(Nc3ccc(F)c(Cl)c3)ncnc2cc1OCCCN1CCOCC1 | 8.00 |
| O=C(O[C@@H]1CN[C@H](C#Cc2cc3ncnc(Nc4ccc(OCc5cccc(F)c5)c(Cl)c4)c3s2)C1)N1CCOCC1 | 6.85 |
| CCNC(=O)O[C@@H]1CN[C@H](C#Cc2cc3ncnc(Nc4ccc(OCc5cccc(F)c5)c(Cl)c4)c3s2)C1 | 6.89 |
